system_tested: dog platelet-derived PDE5 (Canis lupus familiaris)
metric: pIC50
Numbers only, as −log10 of the molar value.

// field: pIC50; key: CCOCCn1nc(C(=O)NS(C)(=O)=O)c2nc(N(C)CC)nc(Nc3cc(C)ccn3)c21 ; value = 9.19

----------
system_tested: UniProtKB O54735
metric: pIC50
Give bare numbers, as −log10 of the molar value.

// field: pIC50; key: CCOCCn1nc(C(=O)NS(C)(=O)=O)c2nc(N(C)CC)nc(Nc3cc(C)ccn3)c21 ; value = 9.03

----------
system_tested: CYP2C9 (Homo sapiens, UniProt P11712)
Construct: was determined in human liver microsomes; from tissue; host or cells: human liver microsomes
Sequence (P11712 whole entry): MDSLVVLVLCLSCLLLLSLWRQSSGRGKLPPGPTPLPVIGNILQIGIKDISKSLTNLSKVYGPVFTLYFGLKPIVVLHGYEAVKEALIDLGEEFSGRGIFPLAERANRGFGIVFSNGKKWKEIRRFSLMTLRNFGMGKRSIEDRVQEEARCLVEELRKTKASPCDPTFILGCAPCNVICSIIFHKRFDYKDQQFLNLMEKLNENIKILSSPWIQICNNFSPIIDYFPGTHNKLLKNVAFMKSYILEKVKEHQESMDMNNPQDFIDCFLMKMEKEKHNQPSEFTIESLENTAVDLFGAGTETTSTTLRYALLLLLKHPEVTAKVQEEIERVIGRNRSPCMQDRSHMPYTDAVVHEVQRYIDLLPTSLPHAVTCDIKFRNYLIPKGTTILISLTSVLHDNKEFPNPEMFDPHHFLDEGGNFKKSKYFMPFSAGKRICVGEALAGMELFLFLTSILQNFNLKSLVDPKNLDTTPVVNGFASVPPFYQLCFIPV
test_description: CYP inhibition in human liver microsomes
Format: in vitro ADME
metric: IC50

// field: IC50; key: CCOCCn1nc(C(=O)NS(C)(=O)=O)c2nc(N(C)CC)nc(Nc3cc(C)ccn3)c21 [Example 1] ; value = > 30 µM

----------
system_tested: CYP3A4 (Homo sapiens, UniProt P08684)
Sequence (P08684 whole entry): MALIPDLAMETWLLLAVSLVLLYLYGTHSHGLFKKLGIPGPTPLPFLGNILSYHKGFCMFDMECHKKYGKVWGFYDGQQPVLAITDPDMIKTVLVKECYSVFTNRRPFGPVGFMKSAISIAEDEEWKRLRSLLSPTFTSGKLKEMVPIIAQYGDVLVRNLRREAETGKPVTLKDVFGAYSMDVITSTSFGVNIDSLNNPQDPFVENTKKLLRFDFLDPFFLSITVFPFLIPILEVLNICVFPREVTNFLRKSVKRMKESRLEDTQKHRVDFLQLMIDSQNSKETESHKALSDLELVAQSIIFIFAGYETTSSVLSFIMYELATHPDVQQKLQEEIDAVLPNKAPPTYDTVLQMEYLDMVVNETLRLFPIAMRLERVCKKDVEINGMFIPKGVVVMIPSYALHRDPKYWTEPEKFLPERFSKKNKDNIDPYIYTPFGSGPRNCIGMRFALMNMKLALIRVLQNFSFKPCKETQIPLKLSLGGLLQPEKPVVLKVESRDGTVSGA
test_description: CYP inhibition in human liver microsomes
Assay type: in vitro ADME
settings: probe midazolam, testosterone and felodipine
metric: IC50

// field: IC50; key: CCOCCn1nc(C(=O)NS(C)(=O)=O)c2nc(N(C)CC)nc(Nc3cc(C)ccn3)c21 [Example 1] ; value = > 30 µM

----------
system_tested: PDE6 enzyme (human retinal cone) (Homo sapiens)
Sequence (P51160 whole entry): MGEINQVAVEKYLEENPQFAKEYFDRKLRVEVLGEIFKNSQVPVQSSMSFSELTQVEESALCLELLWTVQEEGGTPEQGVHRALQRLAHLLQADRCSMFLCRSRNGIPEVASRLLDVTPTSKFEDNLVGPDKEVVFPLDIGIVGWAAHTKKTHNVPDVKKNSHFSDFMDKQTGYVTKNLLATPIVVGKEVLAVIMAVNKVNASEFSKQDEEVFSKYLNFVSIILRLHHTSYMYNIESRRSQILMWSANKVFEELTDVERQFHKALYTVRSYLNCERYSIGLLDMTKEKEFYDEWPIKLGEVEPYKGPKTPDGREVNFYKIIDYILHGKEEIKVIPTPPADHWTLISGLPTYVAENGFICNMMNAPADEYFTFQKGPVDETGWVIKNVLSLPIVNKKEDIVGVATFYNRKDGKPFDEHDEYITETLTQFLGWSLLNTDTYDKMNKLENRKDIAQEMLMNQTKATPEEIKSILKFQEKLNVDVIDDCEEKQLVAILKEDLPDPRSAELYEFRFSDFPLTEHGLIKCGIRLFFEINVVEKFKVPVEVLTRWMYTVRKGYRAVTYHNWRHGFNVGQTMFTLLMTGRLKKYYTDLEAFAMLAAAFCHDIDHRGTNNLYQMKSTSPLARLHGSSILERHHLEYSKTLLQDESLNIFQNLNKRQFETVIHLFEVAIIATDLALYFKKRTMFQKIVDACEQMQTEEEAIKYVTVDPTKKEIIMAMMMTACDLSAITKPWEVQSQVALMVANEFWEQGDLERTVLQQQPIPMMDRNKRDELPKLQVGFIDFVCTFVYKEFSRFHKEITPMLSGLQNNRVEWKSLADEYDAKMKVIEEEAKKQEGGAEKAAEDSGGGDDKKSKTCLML
metric: IC50 (nM)
One number for each entry, in nM.

// field: IC50; key: CCOCCn1nc(C(=O)NS(C)(=O)=O)c2nc(N(C)CC)nc(Nc3cc(C)ccn3)c21 ; value = 28.9

----------
test_description: Pharmacokinetics in dogs
Type: in vivo, dog
settings: dog, plasma; dogs, 5 mg/kg oral
Description: For toxicokinetic studies, this method was validated over a concentration range of 10 to 1000 ng/mL for a 50 μL plasma sample. Radiometric methods were used to measure [^14C]
metric: Cmax (µg/mL)
One number for each entry, in µg/mL.

// field: Cmax; key: CCOCCn1nc(C(=O)NS(C)(=O)=O)c2nc(N(C)CC)nc(Nc3cc(C)ccn3)c21 [Example 1] ; value = 12.8

----------
test_description: in vitro
settings: rat, plasma
metric: fraction unbound

// field: fraction unbound; key: CCOCCn1nc(C(=O)NS(C)(=O)=O)c2nc(N(C)CC)nc(Nc3cc(C)ccn3)c21 ; value = 0.007

----------
test_description: clinical
settings: male, human, in vivo, 30 mg
metric: Cmax

// field: Cmax; key: CCOCCn1nc(C(=O)NS(C)(=O)=O)c2nc(N(C)CC)nc(Nc3cc(C)ccn3)c21 ; value = 1570 to 1630 ng/mL

----------
test_description: Pharmacokinetics in dogs
Format: in vivo, dog
settings: dog, plasma, po; dogs, single dose; read-out: Absolute oral bioavailability
metric: bioavailability (%)
Answers are plain numbers, in %.

// field: bioavailability; key: CCOCCn1nc(C(=O)NS(C)(=O)=O)c2nc(N(C)CC)nc(Nc3cc(C)ccn3)c21 [Example 1] ; value = 77

----------
test_description: clinical
settings: male, human, in vivo, Terminal half-life
metric: half-life

// field: half-life; key: CCOCCn1nc(C(=O)NS(C)(=O)=O)c2nc(N(C)CC)nc(Nc3cc(C)ccn3)c21 ; value = 11.9 to 15.7 h

----------
test_description: in vitro
settings: rabbit, plasma
metric: fraction unbound
Numbers only.

// field: fraction unbound; key: CCOCCn1nc(C(=O)NS(C)(=O)=O)c2nc(N(C)CC)nc(Nc3cc(C)ccn3)c21 ; value = 0.012
